B1: TPR t1 (parent)
chain: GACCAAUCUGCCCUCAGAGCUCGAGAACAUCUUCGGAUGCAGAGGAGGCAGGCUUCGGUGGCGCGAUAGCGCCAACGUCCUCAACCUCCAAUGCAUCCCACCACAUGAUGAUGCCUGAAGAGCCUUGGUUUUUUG

Variants of: B1
protocol-details: polymerase ribozyme fitness, log enrichment relative to wild type (log ratio); higher = more active; in vitro selection for triplet polymerase activity
Would you please tag the item Criterion met when its polymerase ribozyme fitness (log ratio) is -4 or above, and Criterion not met when it is below?

Here are 2 variants together with their reported answers.
# mutation-name, cat
rows = [
    ("A41C C70U G71C G117U C123A G128A", "Criterion not met"),
    ("A6G G39U", "Criterion met"),
]

Problem: Form field: polymerase ribozyme fitness (log ratio) at least -4? Entry: A16C G117U A121C
Solution: Criterion not met

Problem: Item: C15A U54A C56G
Solution: Criterion met

Problem: Try this variant next: C31G C62U A84G U87A G93U G120U
Solution: Criterion not met

Problem: Then what about the variant C72U G93A ?
Solution: Criterion met

Problem: Also check A26G C73A
Solution: Criterion met

# credit: the RNAGym collection of RNA variant scans (doi:10.1073/pnas.2313332121)
